- Assay: molar heat capacity at constant pressure
- Assay conditions: 333 K; 101.33 kPa; Crystal; Small sample (50 mg) DSC
molar heat capacity at constant pressure strictly less than 200 J/K/mol = met. Otherwise not met.

Completed entries (count: 3):
O=[N+]([O-])C(=C1NCCCCN1)[N+](=O)[O-] = not met
NC(N)=C([N+](=O)[O-])[N+](=O)[O-] = met
CC1CNC(=C([N+](=O)[O-])[N+](=O)[O-])N1 (stereo not given) = not met

# check: molar heat capacity at constant pressure < 200 J/K/mol for "O=[N+]([O-])C(=C1NCCCN1)[N+](=O)[O-]"
not met

# check: molar heat capacity at constant pressure < 200 J/K/mol for "O=[N+]([O-])C(=C1NCCN1)[N+](=O)[O-]"
not met

###

- Assay: molar heat capacity at constant pressure
- Assay conditions: 313 K; 101.33 kPa; Crystal; Small sample (50 mg) DSC
molar heat capacity at constant pressure strictly less than 200 J/K/mol = Yes. Otherwise No.

O=[N+]([O-])C(=C1NCCCCN1)[N+](=O)[O-] = No
O=[N+]([O-])C(=C1NCCCN1)[N+](=O)[O-] = No
CC1CNC(=C([N+](=O)[O-])[N+](=O)[O-])N1 (stereo not given) = No

# check: molar heat capacity at constant pressure < 200 J/K/mol for "O=[N+]([O-])C(=C1NCCN1)[N+](=O)[O-]"
No

# check: molar heat capacity at constant pressure < 200 J/K/mol for "NC(N)=C([N+](=O)[O-])[N+](=O)[O-]"
Yes

###

- Assay: molar heat capacity at constant pressure
- Assay conditions: 323 K; 101.33 kPa; Crystal; Small sample (50 mg) DSC
molar heat capacity at constant pressure strictly less than 200 J/K/mol = Satisfied. Otherwise Not satisfied.

Completed entries (count: 4):
CC1CNC(=C([N+](=O)[O-])[N+](=O)[O-])N1 (stereo not given) = Not satisfied
O=[N+]([O-])C(=C1NCCN1)[N+](=O)[O-] = Not satisfied
O=[N+]([O-])C(=C1NCCCCN1)[N+](=O)[O-] = Not satisfied
NC(N)=C([N+](=O)[O-])[N+](=O)[O-] = Satisfied

From here, focus on the item given below.
# check: molar heat capacity at constant pressure < 200 J/K/mol for "O=[N+]([O-])C(=C1NCCCN1)[N+](=O)[O-]"
Not satisfied

###

- Assay: molar heat capacity at constant pressure
- Assay conditions: 283 K; 101.33 kPa; Crystal; Small sample (50 mg) DSC
Recorded metric: molar heat capacity at constant pressure (J/K/mol)
Kindly answer with a numeric value in J/K/mol, unit omitted.

O=[N+]([O-])C(=C1NCCN1)[N+](=O)[O-] = 197.45
O=[N+]([O-])C(=C1NCCCCN1)[N+](=O)[O-] = 204.6

Requested field: molar heat capacity at constant pressure. Item: "O=[N+]([O-])C(=C1NCCCN1)[N+](=O)[O-]"
200.18
